The compounds listed here are annotated with their inhibition at 0.1 µM.
- TESTED TARGET: EGFR (ErbB1) T790M L858R (Homo sapiens, UniProt P00533, L858R/T790M)
- Construct: purchased Invitrogen
- Sequence (P00533 25-1210 T790M/L858R): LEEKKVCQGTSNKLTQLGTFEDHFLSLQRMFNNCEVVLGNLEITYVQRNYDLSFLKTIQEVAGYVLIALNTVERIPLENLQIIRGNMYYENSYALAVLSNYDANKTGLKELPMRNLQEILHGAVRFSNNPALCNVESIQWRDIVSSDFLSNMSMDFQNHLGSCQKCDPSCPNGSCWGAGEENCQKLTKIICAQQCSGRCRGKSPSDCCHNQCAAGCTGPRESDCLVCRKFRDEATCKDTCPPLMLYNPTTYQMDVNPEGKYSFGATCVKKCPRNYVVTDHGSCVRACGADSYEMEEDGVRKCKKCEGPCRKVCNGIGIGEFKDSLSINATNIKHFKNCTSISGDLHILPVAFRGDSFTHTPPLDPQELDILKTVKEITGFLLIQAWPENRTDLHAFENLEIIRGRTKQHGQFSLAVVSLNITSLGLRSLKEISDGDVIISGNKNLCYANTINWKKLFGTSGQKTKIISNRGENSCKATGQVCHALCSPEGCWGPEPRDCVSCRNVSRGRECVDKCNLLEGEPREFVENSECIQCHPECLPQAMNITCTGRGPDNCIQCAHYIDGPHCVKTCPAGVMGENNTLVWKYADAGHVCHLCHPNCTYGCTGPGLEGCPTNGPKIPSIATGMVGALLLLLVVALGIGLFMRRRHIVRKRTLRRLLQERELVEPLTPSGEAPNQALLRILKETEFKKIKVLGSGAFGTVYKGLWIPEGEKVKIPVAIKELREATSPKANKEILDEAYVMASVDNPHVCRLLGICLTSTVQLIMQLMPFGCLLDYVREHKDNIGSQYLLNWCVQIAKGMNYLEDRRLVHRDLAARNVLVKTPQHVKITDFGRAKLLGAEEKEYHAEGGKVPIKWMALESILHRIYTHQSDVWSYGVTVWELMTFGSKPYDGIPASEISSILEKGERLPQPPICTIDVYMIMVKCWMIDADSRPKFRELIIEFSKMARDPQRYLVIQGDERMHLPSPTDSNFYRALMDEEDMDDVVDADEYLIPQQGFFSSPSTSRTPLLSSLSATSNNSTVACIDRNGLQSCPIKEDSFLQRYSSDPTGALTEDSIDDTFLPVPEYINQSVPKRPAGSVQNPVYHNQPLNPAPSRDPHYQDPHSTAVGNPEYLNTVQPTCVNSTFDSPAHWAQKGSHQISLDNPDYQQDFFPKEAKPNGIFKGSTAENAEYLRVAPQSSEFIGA
- PROTOCOL DESCRIPTION: In vitro kinase assay (Z'-LYTE), EGFR (ErbB1) T790M L858R
- Assay type: biochemical
- CONDITION DESCRIPTION: read-out: % of inhibition of the kinase compared to the control

>>> df
                                   compound  result
0  Cc1ccc(NC(=O)c2ccc(CN3CCN(C)CC3)cc2)cc1CNc1cnc2[nH]c(C(=O)O)cc2c1   < 50%
1  CNC(=O)c1cc2cc(NCc3cc(NC(=O)c4ccc(CN5CCN(C)CC5)c(C(F)(F)F)c4)ccc3C)cnc2[nH]1   ≥ 50%
2  CC(=O)c1cc2cc(NC(=O)c3cc(NC(=O)c4ccc(CN5CCC(N(C)C)C5)c(C(F)(F)F)c4)ccc3C)cnc2[nH]1 (stereo not drawn)   < 50%
3  CNC(=O)c1cc2cc(NCc3cc(NC(=O)c4ccc(CN5CCN(C)CC5)cc4)ccc3C)cnc2[nH]1   ≥ 50%
4  Cc1cn(-c2cc(C(=O)Nc3ccc(C)c(CNc4cnc5[nH]c(C(=O)O)cc5c4)c3)cc(C(F)(F)F)c2)cn1   ≥ 50%

Short answer on EGFR (ErbB1) T790M L858R (Homo sapiens, UniProt P00533, L858R/T790M) for CC(=O)c1cc2cc(NCc3cc(NC(=O)c4ccc(CN5CCC(N(C)C)C5)c(C(F)(F)F)c4)ccc3C)cnc2[nH]1 (stereo not drawn) , inhibition at 0.1 µM: ≥ 50%
